- Tested on: nuOXPHOS transcripts
- Assay type: cell-based, mouse
- experimentalSetup: normalized composite Z-score vs mock-treated (DMSO) wells; Conc 20 μM
assayEndpoint: nucOX
Could you keep your reply to the number by itself?

The following molecules have reported results that may help.
molecule: COC(=O)C[C@H]1C(C)(C)[C@@H](O)[C@@H]2CC3=C4CC(O)O[C@@H](c5ccoc5)[C@]4(C)CCC3[C@@]1(C)C2=O (stereo partly drawn) [3,16-dideoxymexicanolide-3beta-diol]
number: 0.282
--
molecule: C=C1CCC(=O)C(C)CCC2C1CC2(C)C (stereo not drawn) [dihydrocaryophyllen-5-one]
number: −0.513

// query Quick check: nucOX of CC(C)(O)[C@H]1CC[C@]2(C)[C@H]3CC[C@@H]4[C@@]5(C)CCCC(C)(C)[C@@H]5[C@@H](O)C[C@@]4(C)[C@]3(C)CC[C@@H]12 [zeorin] ?
// result 0.278

###

- Tested on: reactive oxygen species
- Format: cell-based, mouse
- experimentalSetup: normalized composite Z-score vs mock-treated (DMSO) wells; Conc 20 μM
Quick reference for ROS among some compounds
Would you mind answering with just the numeric figure?

Worked set:
compound: CC1=CC(=O)CC(C)(C)[C@@]1(O)/C=C/C(C)=C\C(=O)O [abscisic acid]
number: −0.476
--
compound: Cc1cc(=O)c2c(O)c3c(cc2o1)OCC(C)CC3 (stereo not shown) [dihydroptaeroxylin]
number: 0.151
--
compound: CC1(C)C(=O)C=C[C@]2(C)[C@H]3CC[C@@]4(C)[C@H](c5ccoc5)OC(=O)[C@H]5O[C@]54[C@]3(C)C=C[C@@H]12 [7-desacetoxy-6,7-dehydrogedunin]
number: −3.492

// query Returns the measured ROS for the input compound. Input: CC[C@H](CC[C@@H](C)[C@H]1CC[C@H]2[C@@H]3CC=C4C[C@@H](OC(C)=O)CC[C@]4(C)[C@H]3CC[C@]12C)C(C)C [sitosteryl acetate]
// result 0.930

// query Query (compound): Nc1ccccc1C(=O)CC(N)C(=O)O (stereo not shown) ; field requested: ROS
// result 1.941

// query Reported ROS, compound CC(=O)C[C@H]1CCCCN1 : ____
// result −0.071

// query Could you tell me which ROS is on file for C=C1C(N)CC2CC1C2(C)C (stereo not shown) ?
// result 0.421

// query Form field: reported ROS of COc1cc2c(cc1OC)C1(O)C(=O)c3ccc(O)c(C(=O)O)c3OC1CO2 (stereo not shown)
// result −0.738

// query For COc1ccc2c(c1)OCC(Cc1ccc(OC)c(OC)c1)C2O (stereo not shown) [3-deshydroxysappanol trimethyl ether, reference compound] , what is its reported ROS?
// result 1.385

###

# ΔΨm annotations
- System: mitochondrial membrane potential
- Format: cell-based, mouse
- experimentalSetup: Table 4; C2C12 myotubes, 48 h, JC-1, composite Z-score
Give the figure by itself; no unit, no explanation.

Completed entries (count: 4):
compound: COc1ccc([C@H]2Oc3c(I)c(OC)cc(OC)c3C[C@@H]2O)cc1OC [8-iodocatechin tetramethyl ether, reference compound]
assayEndpoint: ΔΨm
number: 0.146
--
compound: COc1cc2c(cc1OC)[C@@H]1C(=O)c3ccc4c(c3O[C@@H]1CO2)C=CC(C)(C)O4 [deguelin(−), reference compound]
assayEndpoint: ΔΨm
number: 1.451
--
compound: COc1cc(OC)c2c(c1Cl)O[C@@]1(C(=O)CC(=O)C[C@H]1C)C2=O [griseofulvic acid, reference compound]
assayEndpoint: ΔΨm
number: −0.666
--
compound: COc1cc2c(cc1OC)[C@@H]1C(=O)c3ccc4c(c3O[C@@H]1CO2)CC(C(C)C)O4 (stereo partly drawn) [beta-dihydrorotenone, reference compound]
assayEndpoint: ΔΨm
number: 1.079

Kindly review the next compound as well.
// query Record lookup: for mitochondrial membrane potential, what ΔΨm belongs to COc1cc2c(cc1OC)C1C(=O)c3c(cc4c(c3O)C=CC(C)(C)O4)OC1CO2 (stereo not drawn) [beta-toxicarol, reference compound] ?
// result 0.899
